Assignment: determine reported pIC50 for the given compounds.
- Tested on: FAPs
- assay-name: Cell viability assay (cell counting kit-8) of senescent and non-senescent FAPs treated with inhibitors
- Format: cell-based, mouse
- condition: Mus musculus, 72 h; FAPs, 3 days in culture
Please keep in mind that pIC50 is minus log10 of the molar concentration; only the number is needed.

[Q] Entry under review: C[C@H](CCCC(C)(C)O)[C@H]1CC[C@H]2[C@@H]3CC=C4C[C@@H](O)CC[C@]4(C)[C@H]3CC[C@]12C [25HC, 25-hydroxycholesterol] . Reported pIC50?
[A] 5.77

[Q] Entry under review: CC1(C)CCC(c2ccc(Cl)cc2)=C(CN2CCN(c3ccc(C(=O)NS(=O)(=O)c4ccc(N[C@H](CCN5CCOCC5)CSc5ccccc5)c(S(=O)(=O)C(F)(F)F)c4)cc3)CC2)C1 . Reported pIC50?
[A] 4.83
